Biological target: human thrombocytes
Experiment: Fibrinogen binding to human thrombocytes
Settings: gel-filtered platelets, 125-J-fibrinogen, 20 minutes at ambient temperature; read-out: Fibrinogen binding test IC50
pIC50: −log10 of the molar value. Structures can show the parent of a compound that is named as a salt.
measurement_name: pIC50

compound: N=C(N)c1ccc(-c2ccc(OC[C@@H]3C[C@@H](CC(=O)O)C(=O)N3CCCc3ccccc3)cc2)cc1
measurement_name: pIC50
assay_result: 7.49

I = N=C(N)c1ccc(-c2ccc(OC[C@@H]3C[C@@H](CC(=O)O)C(=O)N3)cc2)cc1F
II = N=C(N)c1ccc2c(c1)C(=O)c1cc(OC[C@@H]3C[C@@H](CC(=O)O)C(=O)N3CCCc3ccccc3)ccc1-2
Q) Please indicate which has the smaller reported pIC50: I , or II . Identify your pick by its label.
A) II
(II: 7.39, I: 7.59)

P = N=C(N)c1ccc(-c2ccc(OC[C@H]3CNC(=O)[C@@H]3CC(=O)O)cc2)cc1 (relative stereo)
Q = NC1CCc2cc(C(=O)NCC[C@@H]3C[C@@H](CC(=O)O)C(=O)N3CCCc3ccccc3)ccc2C1 (stereo partly shown)
R = N=C(N)c1ccc(Nc2ccccc2C(=O)NC[C@@H]2C[C@@H](CC(=O)O)C(=O)N2CCCc2ccccc2)cc1
Q) Put the compounds in ascending order of pIC50. Would you mind listing the labels in the order asked for?
A) R, Q, P

I = N=C(N)c1ccc(-c2ccc(OC[C@@H]3C[C@@H](CC(=O)O)C(=O)N3c3ccccc3)cc2)cc1
II = COC(=O)C[C@@H]1C[C@@H](COc2ccc(-c3ccc(C(=N)N)cc3)cc2)NC1=O [6(2), HCl]
Q) Would you let me know which has the greater pIC50 value, I or II ? Identify your pick by its label.
A) I
(I: 7.62, II: 5.64)

a = CN(C)S(=O)(=O)N1C[C@H](CC(=O)O)C[C@H]1COc1ccc(-c2ccc(C(=N)N)cc2)cc1
b = NCCCC(=O)Nc1ccc(OC[C@@H]2C[C@@H](CC(=O)O)C(=O)N2CCCc2ccccc2)cc1
Q) Please indicate which has the smaller reported pIC50: a , or b . Identify your pick by its label.
A) b
